system: 422866-222-R5-J1-PDC complex spheroid viability; test: Anticancer human tumor 422866-222-R5-J1-PDC patient-derived pancreatic adenocarcinoma cell line growth inhibition [POLQ]; details: second compound 0.0316 µM; first compound 0.316 µM; stronger effect = lower value;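 also: spheroids exposed to compounds for one week before readout; percent of DMSO vehicle wells luminescence so 100% = untreated viability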
ENDPOINT NAME: viability, T/C (%)
Give the value, in units of %, as a plain number.

Known results for compounds:
{"columns": ["COMPOUND", "SYSTEM TESTED", "viability, T/C (%)"],
 "data": [
  ["COc1cc2cc(C(=O)CCC(=O)O)sc2cc1OC + COC1C(OC(N)=O)C(O)C(Oc2ccc3c(O)c(NC(=O)c4ccc(O)c(CC=C(C)C)c4)c(=O)oc3c2C)OC1(C)C", "422866-222-R5-J1-PDC complex spheroid viability", 87.3],
  ["C=CC(=O)N1CCN(c2nc(=O)n(-c3c(C)ccnc3C(C)C)c3nc(-c4c(O)cccc4F)c(F)cc23)C(C)C1 (stereo not drawn) + Cc1cccc(N(C)C(=O)C2C(O)CCN2c2nc(C)cc(C(F)(F)F)c2C#N)c1", "422866-222-R5-J1-PDC complex spheroid viability", 24.8]
]}

Now examine the next entry.
// fetch 422866-222-R5-J1-PDC complex spheroid viability viability, T/C for COc1cc2cc(C(=O)CCC(=O)O)sc2cc1OC + Cc1cccc(N(C)C(=O)C2C(O)CCN2c2nc(C)cc(C(F)(F)F)c2C#N)c1
98.6
